meta.source: patent US5116971A

Test system: human platelets (aggregation induced by PAF)
test: inhibition of PAF-induced blood platelet aggregation in vitro
Type: cell-based
conditions: Homo sapiens, read-out: IC50 (concentration for 50% inhibition of aggregation)
Property: IC50; scope: individual compounds
metric: IC50

>>> resultvalue("COC(=O)[C@@H](CCSC)NC(=O)c1ccc2c(c1)C(c1ccccc1Cl)=NCc1nnc(C)n1-2")
"900 nM"
>>> resultvalue("Cc1nnc2n1-c1ccc(Cl)cc1C(c1ccccc1Cl)=NC2 [Triazolam, triazolam, reference compound]")
"9000 nM"
>>> resultvalue("CCN(CC)C(=O)[C@H](CC(C)C)NC(=O)c1ccc2c(c1)C(c1ccccc1Cl)=NCc1nnc(C)n1-2")
"400 nM"
>>> resultvalue("Cc1nnc2n1-c1ccc(C(=O)N[C@H](C(=O)NC(C)C)C(C)C)cc1C(c1ccccc1Cl)=NC2")
"700 nM"
>>> resultvalue("COc1nnc2n1-c1ccc(C(=O)NCC(=O)N3CCOCC3)cc1C(c1ccccc1Cl)=NC2")
"2500 nM"
>>> resultvalue("Cc1nnc2n1-c1ccc(CC(=O)NCC(=O)N3CCOCC3)cc1C(c1ccccc1Cl)=NC2")
"1100 nM"
>>> resultvalue("C[C@H](NC(=O)c1ccc2c(c1)C(c1ccccc1Cl)=NCc1nnc(C3CC3)n1-2)C(=O)N1CCCC1")
"900 nM"

----------
System: human platelets (aggregation induced by PAF)
test: inhibition of PAF-induced blood platelet aggregation in vitro
Assay type: cell-based
conditions: Homo sapiens, read-out: IC50 (concentration for 50% inhibition of aggregation)
Items are presented alongside their recorded log10 IC50.
metric: log10 IC50 (log10 of the value in µM)

>>> resultvalue("Cc1nnc2n1-c1ccc(C(=O)NCC(=O)N3CCOCC3)cc1C(c1ccccc1Cl)=NC2")
-0.15
>>> resultvalue("COC(=O)C[C@H](NC(=O)c1ccc2c(c1)C(c1ccccc1Cl)=NCc1nnc(C)n1-2)C(=O)OC")
0.08
>>> resultvalue("Cc1nnc2n1-c1ccc(C(=O)N3CCC[C@H]3C(=O)N3CCOCC3)cc1C(c1ccccc1Cl)=NC2")
0.91
>>> resultvalue("COC(=O)CCNC(=O)c1ccc2c(c1)C(c1ccccc1Cl)=NCc1ncc(C)n1-2")
-0.05
>>> resultvalue("Cc1nnc2n1-c1ccc(C(=O)NC3CCSC3=O)cc1C(c1ccccc1Cl)=NC2 (centres unmarked)")
0.54
